System: Canis familiaris
assay.comment: Effect on overt behavior in dog assessed as static ataxia at 0.05 to 10 mg/kg, iv
Assay type: ADME, organism-based, Canis lupus familiaris
Set-up: dose 0.05-10 mg/kg, route intravenous
protocol.conditions: in vivo

{"compound": "CCCCCc1cc(O)c2c(c1)OC(C)(C)[C@@H]1CC[C@@H](O)C=C21 (racemic)", "Activity": "Toxic"}
{"compound": "CCCCCc1cc(O)c2c(c1)OC(C)(C)c1ccc(O)cc1-2", "Activity": "Non-toxic"}
{"compound": "CCCCCc1cc(O)c2c(c1)OC(C)(C)C1=C2CC(O)CC1 (racemic)", "Activity": "Toxic"}
{"compound": "CCCCCc1cc(O)c2c3c(c(=O)oc2c1)CCC(O)C3 (racemic)", "Activity": "Non-toxic"}
